- measurement-protocol: Cell viability assay (AlamarBlue) in HepAD38 cells
- assay-setup: human
measured-parameter: CC50 at 6 days

Study these solved cases before continuing.
>>> obs_value("CN(CCO)C(=O)c1n[nH]c2c1CN(C(=O)c1cc3c(C(C)(F)F)cccc3[nH]1)CC2")
"> 32 µM"
>>> obs_value("COCC1(N(CC(F)(F)F)C(=O)c2n[nH]c3c2CN(C(=O)c2cc4ccccc4[nH]2)CC3)CC1")
"> 10 µM"
>>> obs_value("COCC1(N(C)C(=O)c2n[nH]c3c2CN(C(=O)c2cc4c(Cl)cc(F)cc4[nH]2)CC3)CC1")
"> 10 µM"
>>> obs_value("CC1Cc2[nH]nc(-c3cscn3)c2CN1C(=O)c1cc2c(Cl)cc(F)cc2[nH]1 (stereo not shown)")
"> 32 µM"

// CC50 at 6 days lookup, compound = "O=C(c1cc2c(F)c(F)ccc2[nH]1)N1CCc2n[nH]c(C3CCC3)c2C1" , result: > 10 µM

// CC50 at 6 days lookup, compound = "O=C(c1cc2ccccc2[nH]1)N1CCc2[nH]nc(C(=O)N3CC(F)(F)C(F)(F)C3)c2C1" , result: > 10 µM

// CC50 at 6 days lookup, compound = "O=C(c1cc2ccccc2[nH]1)N1CCc2[nH]nc(C(=O)N3CCS(=O)(=O)CC3)c2C1" , result: > 10 µM

// CC50 at 6 days lookup, compound = "CN(CCO)C(=O)c1n[nH]c2c1CN(C(=O)c1cc3c(Cl)cccc3[nH]1)CC2" , result: > 100 µM

// CC50 at 6 days lookup, compound = "CN(CCO)C(=O)c1n[nH]c2c1CN(C(=O)c1cc3ccccc3[nH]1)CC2" , result: > 100 µM

// CC50 at 6 days lookup, compound = "O=C(c1cc2ccccc2[nH]1)N1CCc2[nH]nc(S(=O)(=O)N3CC(F)(F)C3)c2C1" , result: > 10 µM

// CC50 at 6 days lookup, compound = CC1c2c(-c3cscn3)n[nH]c2CCN1C(=O)c1cc2ccccc2[nH]1 (stereo not shown) , result: 88 µM

// CC50 at 6 days lookup, compound = "O=C(c1cc2ccccc2[nH]1)N1CCc2n[nH]c(C(=O)N3CCCCC34CC4)c2C1" , result: > 10 µM

// CC50 at 6 days lookup, compound = CC1Cc2[nH]nc(-c3cscn3)c2CN1C(=O)c1cc2ccccc2[nH]1 (stereo not shown) , result: 100 µM

// CC50 at 6 days lookup, compound = "CN(C(=O)c1[nH]nc2c1CN(C(=O)c1cc3cccc(F)c3[nH]1)CC2)C1CC1" , result: > 10 µM

// CC50 at 6 days lookup, compound = "CN(C(=O)c1[nH]nc2c1CN(C(=O)c1cc3cc(F)c(Cl)cc3[nH]1)CC2)C1CC1" , result: > 10 µM

// CC50 at 6 days lookup, compound = "O=C(c1cc2ccccc2[nH]1)N1CCc2[nH]nc(C(=O)N3CC(F)(F)C3)c2C1" , result: > 10 µM

----------
The entries below are paired with their reported IC50.
- test-system: HBV core protein (UniProt P03146)
- Construct: fused on or other part: BODIPY-FL maleimide label on the C-terminal Cys150
- Sequence (P03146 whole entry, looked up, the tested form may be a part): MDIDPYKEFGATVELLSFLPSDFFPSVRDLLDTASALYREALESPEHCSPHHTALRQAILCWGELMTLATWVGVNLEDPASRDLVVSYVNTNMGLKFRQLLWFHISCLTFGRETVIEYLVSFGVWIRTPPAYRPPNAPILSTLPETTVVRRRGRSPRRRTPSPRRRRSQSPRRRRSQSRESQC
- measurement-protocol: Biochemical capsid assembly assay (fluorescence quenching)
- Parameters: species or system hepatitis B virus
- assay-setup: read-out: Assembly Activity (IC50); BODIPY-FL labelled core protein, 300 μM NaCl, read 6 min after start
- Protocol: Biochemical Capsid Assembly Assay The screening for assembly effector activity was done based on a fluorescence quenching assay published by Zlotnick et al. (2007). […] Immediately before labelling the core protein was reduced by adding freshly prepared DTT in a final concentration of 20 mM. […] In the dimeric state the fluorescence signal of the labelled core protein is high and is quenched during the assembly of the core dimers to high molecular capsid structures. […]

Study these solved cases before continuing.
>>> obs_value("O=C(c1cc2ccccc2[nH]1)N1CCc2[nH]nc(C(=O)N3CCCO3)c2C1 [Example 133]")
"< 5 µM"
>>> obs_value("CC1Cc2[nH]nc(-c3cscn3)c2CN1C(=O)c1cc2ccccc2[nH]1 (centres unmarked) [Example 38]")
"< 5 µM"
>>> obs_value("CN(CCO)C(=O)c1n[nH]c2c1CN(C(=O)c1cc3c(Cl)cccc3[nH]1)CC2 [Example 58]")
"< 5 µM"
>>> obs_value("COCC1(N(C)C(=O)c2n[nH]c3c2CN(C(=O)c2cc4cc(F)c(Cl)cc4[nH]2)CC3)CC1 [Example 265]")
"< 5 µM"
>>> obs_value("COCCN(C)C(=O)c1n[nH]c2c1CN(C(=O)c1cc3ccccc3[nH]1)CC2 [Example 54]")
"< 5 µM"
>>> obs_value("CN(CCCO)C(=O)c1n[nH]c2c1CN(C(=O)c1cc3ccccc3[nH]1)CC2 [Example 102]")
"< 5 µM"
>>> obs_value("CCOC(=O)c1n[nH]c2c1CN(C(=O)c1cc3ccccc3[nH]1)CC2 [Example 140]")
"< 5 µM"
>>> obs_value("CN(CC(O)C1CC1)C(=O)c1n[nH]c2c1CN(C(=O)c1cc3ccccc3[nH]1)CC2 (centres unmarked) [Example 256]")
"< 5 µM"
>>> obs_value("CCc1cc(F)cc2[nH]c(C(=O)N3CCc4[nH]nc(C56CC(C5)C6)c4C3)cc12 [Example 334]")
"< 5 µM"
>>> obs_value("O=C(c1cc2ccccc2[nH]1)N1CCc2[nH]nc(NCc3ccccc3)c2C1 [Example 91]")
"5 to 10 µM"

// IC50 lookup, compound = O=C(c1cc2ccccc2[nH]1)N1CCc2[nH]nc(C34CC(C3)C4)c2C1 [Example 343] , result: < 5 µM

// IC50 lookup, compound = O=C(c1cc2ccccc2[nH]1)N1CCc2[nH]nc(NCC3CC3)c2C1 [Example 79] , result: 5 to 10 µM

// IC50 lookup, compound = O=C(c1cc2ccc(Cl)cc2[nH]1)N1CCc2n[nH]c(-c3cscn3)c2C1 [Example 16] , result: < 5 µM

// IC50 lookup, compound = CC(=O)N1CCN(C(=O)c2n[nH]c3c2CN(C(=O)c2cc4ccccc4[nH]2)CC3)C(C)(C)C1 [Example 163] , result: < 100 µM

// IC50 lookup, compound = O=C(NCC1CCOC1)c1n[nH]c2c1CN(C(=O)c1cc3ccccc3[nH]1)CC2 (centres unmarked) [Example 96] , result: < 100 µM

// IC50 lookup, compound = CCc1cc(F)cc2[nH]c(C(=O)N3CCc4[nH]nc(C(=O)N(C)C5(CO)CC5)c4C3)cc12 [Example 271] , result: < 5 µM

// IC50 lookup, compound = O=C(c1cc2c(F)cc(F)cc2[nH]1)N1CCc2[nH]nc(C34CC(C3)C4)c2C1 [Example 333] , result: < 5 µM
